# System: T4 antiserum covalently coupled to the solid phase
# test_details: Free thyroxine (FT4) competitive chemiluminescent immunoassay, specificity (% cross-reactivity)
# Assay type: binding
# condition_summary: FT4 assay, anti-T4 paramagnetic particles, 7.5 minutes at 37° C.
endpoint: % Cross-Reactivity (%)
# value in %; strip the unit string

Tell me the measured % Cross-Reactivity of N[C@@H](Cc1cc(I)c(Oc2ccc(O)c(I)c2)c(I)c1)C(=O)O [L-triiodothyronine] , please. 3.9

Field entry: NC(Cc1ccc(Oc2cc(I)c(O)c(I)c2)c(I)c1)C(=O)O (stereo not shown) [Reverse triiodothyronine] 3.1

Field entry: N[C@H](Cc1cc(I)c(Oc2ccc(O)c(I)c2)c(I)c1)C(=O)O [D-triiodothyronine] 3.6

----------
Hi there, I'd appreciate the recorded Spiked vs. Control, Mean +/− SD for every entry that follows.
# Test system: prostate specific antigen (PSA) assay
# test_details: PSA chemiluminescent immunoassay, interfering substances (endogenous compounds, chemotherapeutic agents)
# condition_summary: mean over three PSA levels; chemotherapeutic agents

Tell me the measured Spiked vs. Control, Mean +/− SD of COc1cccc2c1C(=O)c1c(O)c3c(c(O)c1C2=O)C[C@@](O)(C(=O)CO)C[C@@H]3O[C@H]1C[C@H](N)[C@H](O)[C@H](C)O1 , please. 100 +/− 3%

Field entry: O=P1(N(CCCl)CCCl)NCCCO1 (stereo not shown) [Cyclophosphamide] 98 +/− 3%

Field entry: CC/C(=C(/CC)c1ccc(O)cc1)c1ccc(O)cc1 101 +/− 5%

Field entry: CC(=O)O[C@]1(C(C)=O)CC[C@H]2[C@@H]3C=C(C)C4=CC(=O)CC[C@]4(C)[C@H]3CC[C@@]21C [Megestrol Acetate] 101 +/− 5%

----------
# Test system: T4 antiserum covalently coupled to the solid phase
# test_details: Free thyroxine (FT4) competitive chemiluminescent immunoassay, specificity (% cross-reactivity)
# Format: binding
# condition_summary: FT4 assay, anti-T4 paramagnetic particles, 7.5 minutes at 37° C.
Hi there, I'd appreciate the recorded % Cross-Reactivity for every entry that follows.

Tell me the measured % Cross-Reactivity of N[C@@H](Cc1cc(I)c(Oc2ccc(O)cc2)c(I)c1)C(=O)O [3,5-diiodo-L-thyronine] , please. <0.002%

Field entry: N[C@H](Cc1cc(I)c(Oc2cc(I)c(O)c(I)c2)c(I)c1)C(=O)O [D-thyroxine] >64%

Field entry: N[C@@H](Cc1ccc(O)c(I)c1)C(=O)O [Monoiodotyrosine] <0.002%

Field entry: N[C@@H](Cc1cc(I)c(O)c(I)c1)C(=O)O [Diiodotyrosine] <0.002%
